Test system: HepG2
experiment: Cytotoxicity against Homo sapiens (human) HepG2 cells assessed as inhibition of cell survival after 96 hr
Format: functional, cell-based
settings: HepG2, 96 h
measure.name: IC50

compound	IC50
CCC1(C)CC2(SC(NC(C)=O)=NN2C(C)=O)c2cc(OC(C)=O)ccc2O1 (stereo unspecified)	620 µM
O=C1CC2(CCCCCC2)Oc2ccc(O)cc21	1450 µM
O=C1CC2(CCCCC2)Oc2ccc(O)cc21	190 µM

Could you tell me which IC50 is on file for `CC1(C)C/C(=N\NC(N)=S)c2cc(O)ccc2O1` ?
140 µM

Could you share which IC50 value was measured for `Oc1ccc2c(c1)-c1nn[se]c1C1(CCCCCC1)O2` ?
1150 µM

Consider the compound `Oc1ccc2c(c1)-c1nn[se]c1C1(CCCCC1)O2` and give its measured IC50.
90 µM

---

Tested on: HepG2
experiment: Cytotoxicity against Homo sapiens (human) HepG2 cells assessed as inhibition of cell survival after 96 hr
Type: functional, cell-based
settings: HepG2, 96 h
measure.name: pIC50
Quick note: pIC50 values are minus log10 of concentrations in mol/L.

molecule	pIC50
CCC1(C)Oc2ccc(O)cc2-c2nn[se]c21 (stereo unspecified)	4.30
NC(=S)N/N=C1\CC2(CCCC2)Oc2ccc(O)cc21	4.00
NC(=S)N/N=C1\CC2(CCCCCC2)Oc2ccc(O)cc21	2.84
CCC1(C)C/C(=N\NC(N)=O)c2cc(O)ccc2O1 (stereo unspecified)	4.22
O=c1[nH]cc(F)c(=O)[nH]1	4.15

I have this molecule here, `NC(=O)N/N=C1\CC2(CCCCC2)Oc2ccc(O)cc21` , and I need its recorded pIC50.
3.82
